Organism: Oryctolagus cuniculus
Experiment: Activation of rabbit skeletal muscle PP2A catalytic subunit at 19 to 395 uM using [32P]MLC20 as substrate pretreated for 10 mins followed by substrate addition measured after 10 mins by scintillation counting method relative to control
Calls of active or inactive are those of the source. No cut-off for these calls is given here.
Your reply should match one of these outcome classes. yes (1) (active), no (0) (inactive)

// known answers, use as guide
{"columns": ["SMILES_REPRESENTATION", "CATEGORY_LABEL"],
 "data": [
  ["CC(=O)OC[C@H]1O[C@@H]([Se]Cc2ccc(Br)cc2)[C@H](OC(C)=O)[C@@H](OC(C)=O)[C@@H]1OC(C)=O", "yes (1)"],
  ["CC(=O)OC[C@H]1O[C@@H]([Se]Cc2ccccc2)[C@H](OC(C)=O)[C@@H](OC(C)=O)[C@@H]1OC(C)=O", "yes (1)"],
  ["CC(=O)OC[C@H]1O[C@@H]([Se]C(=O)c2ccccc2)[C@H](OC(C)=O)[C@@H](OC(C)=O)[C@@H]1OC(C)=O", "no (0)"],
  ["CC(=O)OC[C@H]1O[C@@H]([Se]c2ccc([N+](=O)[O-])cc2[N+](=O)[O-])[C@H](OC(C)=O)[C@@H](OC(C)=O)[C@@H]1OC(C)=O", "no (0)"],
  ["CC(=O)OC[C@H]1O[C@@H]([Se]c2ccc([N+](=O)[O-])cn2)[C@H](OC(C)=O)[C@@H](OC(C)=O)[C@@H]1OC(C)=O", "no (0)"],
  ["CC(=O)OC[C@H]1O[C@@H]([Se]Cc2ccc([N+](=O)[O-])cc2)[C@H](OC(C)=O)[C@@H](OC(C)=O)[C@@H]1OC(C)=O", "no (0)"]
]}

# next molecule below
Ask | Name the outcome recorded for `CC(=O)N[C@@H]1[C@@H](OC(C)=O)[C@H](OC(C)=O)[C@@H](COC(C)=O)O[C@H]1[Se]c1ccc([N+](=O)[O-])cn1` in the assay.
Reply | no (0)
